Tested on: BRAF-MEK1
protocol-text: BRAF-MEK TR-FRET assay, stabilization of MEK1 and BRAF interaction
Type: binding
conditions-used: 4 nM BRAF, 10 nM MEK, 100 μM ATP; 1 hr at 25° C.; read-out: BRAF-MEK TR-FRET Assay (EC50, fold stabilization)
pEC50: −log10 of the molar value.

| compound | assayed-target | pEC50 |
| --- | --- | --- |
| CNS(=O)(=O)Nc1nccc(CN2C(=O)Oc3cc(Oc4cccnn4)ccc3C2(C)C)c1F | BRAF-MEK1 | 6.00 to 6.70 |
| CNS(=O)(=O)Nc1nccc(CN2C(=O)Oc3cc(Oc4cccnn4)ccc3[C@H]2C)c1F (single isomer, unassigned) | BRAF-MEK1 | > 7.30 |
| C[C@@H]1c2ccc(Oc3cccnn3)c(F)c2OC(=O)N1Cc1cccc(NS(=O)(=O)N(C)C)c1F (single isomer, unassigned) | BRAF-MEK1 | > 7.30 |
| CNS(=O)(=O)Nc1cccc(CN2Cc3ccc(OC(=O)C4CC4)cc3OC2=O)c1F | BRAF-MEK1 | 6.70 to 7.30 |

---

assayed-target: MEK1 (Homo sapiens, UniProt Q02750)
Construct: purchased SignalChem M02-14H
Sequence (Q02750 whole entry): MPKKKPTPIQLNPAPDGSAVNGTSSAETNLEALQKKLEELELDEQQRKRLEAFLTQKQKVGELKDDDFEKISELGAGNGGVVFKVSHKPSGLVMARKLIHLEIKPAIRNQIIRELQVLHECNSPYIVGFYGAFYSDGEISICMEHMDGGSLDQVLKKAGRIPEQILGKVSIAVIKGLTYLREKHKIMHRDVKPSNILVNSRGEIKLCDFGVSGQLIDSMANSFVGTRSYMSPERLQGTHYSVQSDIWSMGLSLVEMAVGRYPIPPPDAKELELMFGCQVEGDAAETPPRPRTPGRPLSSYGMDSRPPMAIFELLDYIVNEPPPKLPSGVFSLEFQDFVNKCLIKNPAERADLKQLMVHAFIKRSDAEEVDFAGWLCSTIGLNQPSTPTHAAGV
Sequence (P15056 445-723 partner limits assumed): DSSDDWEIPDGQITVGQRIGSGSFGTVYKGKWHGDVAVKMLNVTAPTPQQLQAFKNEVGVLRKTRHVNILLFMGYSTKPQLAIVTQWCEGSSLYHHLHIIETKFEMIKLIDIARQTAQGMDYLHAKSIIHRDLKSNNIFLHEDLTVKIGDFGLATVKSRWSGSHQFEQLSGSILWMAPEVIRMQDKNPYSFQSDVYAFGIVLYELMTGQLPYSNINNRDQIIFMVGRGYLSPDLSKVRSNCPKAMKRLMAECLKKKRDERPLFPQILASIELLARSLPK
protocol-text: MEK1 kinase cascade assay (ADP-Glo), inhibition of MEK1 kinase activity
Type: biochemical
conditions-used: BRAF ADP Glo kinase assay V3 (IC50)

| compound | assayed-target | IC50 |
| --- | --- | --- |
| CNS(=O)(=O)Nc1cccc(CN2Cc3cc(Cl)c(OC(=O)N(C)C)cc3OC2=O)c1F [Compound 149] | MEK1 (Homo sapiens, UniProt Q02750) | < 5 nM |

---

System: BRAF-MEK1
protocol-text: BRAF-MEK TR-FRET assay, stabilization of MEK1 and BRAF interaction
Format: binding
conditions-used: 4 nM BRAF, 10 nM MEK, 100 μM ATP; 1 hr at 25° C.; read-out: BRAF-MEK TR-FRET Assay (EC50, fold stabilization)
pEC50: −log10 of the molar value.

| compound | pEC50 |
| --- | --- |
| O=C1Oc2cc(Oc3nccnn3)ccc2C2(CCC2)N1Cc1ccnc(NS(=O)(=O)C2CC2)c1F | 6.70 to 7.30 |
| C[C@H]1c2ccc(Oc3cccnn3)c(F)c2OC(=O)N1Cc1cccc(NS(=O)(=O)N(C)C)c1F (single isomer, unassigned) | 6.00 to 6.70 |
| CNS(=O)(=O)Nc1cccc(CN2C(=O)Oc3cc(Oc4cccnn4)cc(F)c3[C@@H]2C)c1F (single isomer, unassigned) | 6.00 to 6.70 |
| CNS(=O)(=O)Nc1nccc(CN2C(=O)Oc3cc(Oc4ncco4)c(F)cc3C23CCC3)c1F | > 7.30 |

---

assayed-target: MEK1 (Homo sapiens, UniProt Q02750)
Construct: purchased SignalChem M02-14H
protocol-text: MEK1 kinase cascade assay (ADP-Glo), inhibition of MEK1 kinase activity
Assay type: biochemical
conditions-used: 25 nM BRAF, 6.25 nM MEK1, 0.5 μM ERK, 1 mM ATP; 20 min preincubation, 1 hr at 25° C.; read-out: BRAF ADP Glo kinase assay V3 (IC50)
metric: IC50

| compound | recorded-value |
| --- | --- |
| CNS(=O)(=O)Nc1cccc(CN2Cc3ccc(Oc4ncco4)c(F)c3OC2=O)c1F | < 5 nM |
| CNS(=O)(=O)Nc1cccc(CN2Cc3cc(C)c(Oc4ncccn4)cc3OC2=O)c1F | 5 to 50 nM |
| CNS(=O)(=O)Nc1cccc(CN2C(=O)Oc3cc(Oc4ncco4)c(F)cc3[C@@H]2C)c1F (single isomer, unassigned) | 5 to 50 nM |
| CNS(=O)(=O)Nc1nccc(CN2C(=O)Oc3cc(Oc4cccnn4)cnc3[C@H]2C)c1F (stereo in doubt) | 5 to 50 nM |
| CNS(=O)(=O)Nc1cccc(CN2C(=O)Oc3c(ccc(Oc4cccnn4)c3F)C23COC3)c1F | < 5 nM |
| O=C1Oc2cc(Oc3ncco3)c(F)cc2C2(CCC2)N1Cc1ccnc(NS(=O)(=O)C2CC2)c1F | 5 to 50 nM |
| O=C1Oc2cc(Oc3cccnc3)ccc2CN1Cc1cccc(NS(=O)(=O)C2CC2)c1F | 50 to 500 nM |
| CNS(=O)(=O)Nc1nccc(CN2C(=O)Oc3cc(Oc4cccnn4)ccc3C2(C)C)c1F | 5 to 50 nM |
| CN(C)S(=O)(=O)Nc1cccc(CN2C(=O)Oc3cc(Oc4cccnn4)ccc3C2(C)C)c1F | < 5 nM |
| CNS(=O)(=O)Nc1ccc(F)c(CN2C(=O)Oc3cc(Oc4cccnn4)ccc3C23CCC3)c1F | 50 to 500 nM |
| CNS(=O)(=O)Nc1cccc(CN2Cc3ccc(OC(=O)N(C)C)cc3OC2=O)c1F | 5 to 50 nM |
| CNS(=O)(=O)Nc1cccc(CN2C(=O)Oc3cc(Oc4cnccn4)ccc3C23COC3)c1F | 50 to 500 nM |
| O=C1Oc2cc(Oc3cccnn3)c(F)cc2C2(COC2)N1Cc1cccc(NS(=O)(=O)C2CC2)c1F | 5 to 50 nM |
| CNS(=O)(=O)Nc1cccc(CN2C(=O)Oc3cc(Oc4cccnn4)ccc3[C@H]2C)c1F (single isomer, unassigned) | 5 to 50 nM |
| CNS(=O)(=O)Nc1cccc(CN2C(=O)Oc3cc(Oc4ncco4)ccc3[C@H]2C)c1F (single isomer, unassigned) | 5 to 50 nM |
| CNS(=O)(=O)Nc1nccc(CN2C(=O)Oc3cc(Oc4nccnn4)c(F)cc3C23CCC3)c1F | 5 to 50 nM |
| CNS(=O)(=O)Nc1cccc(CN2C(=O)Oc3c(ccc(Oc4ncccn4)c3F)[C@H]2C)c1F (single isomer, unassigned) | 5 to 50 nM |
| CNS(=O)(=O)Nc1cccc(CN2C(=O)Oc3c(ccc(OC(=O)N(C)C)c3F)[C@H]2C)c1F (single isomer, unassigned) | 5 to 50 nM |
| CNS(=O)(=O)Nc1cc(F)cc(CN2Cc3ccc(Oc4cccnn4)cc3OC2=O)c1F | 5 to 50 nM |
| CNS(=O)(=O)Nc1cccc(CN2C(=O)Oc3cc(Oc4ncco4)cc(F)c3[C@@H]2C)c1F (single isomer, unassigned) | 5 to 50 nM |
| CNS(=O)(=O)Nc1cccc(CN2C(=O)Oc3cc(Oc4cccnn4)cc(F)c3[C@@H]2C)c1F (single isomer, unassigned) | 5 to 50 nM |
| CNS(=O)(=O)Nc1nccc(CN2C(=O)Oc3cc(Oc4ncco4)cc(F)c3C23CCC3)c1F | 5 to 50 nM |
| CNS(=O)(=O)Nc1nccc(CN2C(=O)Oc3cc(Oc4ncco4)ccc3C23COC3)c1F | 5 to 50 nM |
| CNS(=O)(=O)Nc1cccc(CN2C(=O)Oc3cc(Oc4cccnn4)c(F)cc3[C@@H]2C)c1F (single isomer, unassigned) | < 5 nM |
| CN(C)S(=O)(=O)Nc1cccc(CN2C(=O)Oc3cc(Oc4cccnn4)ccc3C23COC3)c1F | < 5 nM |
| O=C1Oc2cc(Oc3ncco3)ccc2C2(CCC2)N1Cc1ccnc(NS(=O)(=O)C2CC2)c1F | 5 to 50 nM |
| CNS(=O)(=O)Nc1nccc(CN2C(=O)Oc3cc(Oc4ncco4)cnc3[C@@H]2C)c1F (stereo in doubt) [Compound 190] | 5 to 50 nM |
| CNS(=O)(=O)Nc1cccc(CN2C(=O)Oc3cc(OC(=O)N(C)C)ccc3C23CCC3)c1F | < 5 nM |

Data provenance: patent US20260297105A1
